- Test system: U251 CNS
- Protocol Details: NCI tumour cell line growth inhibition, 48 h
Hi there, I'd appreciate the recorded TGI for every entry that follows.

Qu. Which TGI is reported for this compound? COc1ccc(-c2cc(=O)c3c(C)ccnc3[nH]2)cc1
Ans. > 100 µM

Qu. Which TGI is reported for this compound? O=[N+]([O-])c1ccc(Cl)c(C2CC(c3cccc4ccccc34)=Nc3ccccc3S2=O)c1 (stereo not drawn)
Ans. 20.2 µM

Qu. Which TGI is reported for this compound? NCC(=O)N[C@H]1c2ccsc2/C(=N/O)[C@H]1O
Ans. > 100 µM

----------
- Tested on: HCT-116 colon
- Protocol Details: NCI tumour cell line growth inhibition, 48 h
Where a SMILES comes first, the peptide text is derived from it. [ ]: non-standard residue; d: D form. ξ: configuration not given here. Pentanoyl(2-O,4-OH,5-Cl) = O=C(O)C(O)CC(O)CCl; Ile(3ξ) = CCC(C)[C@H](N)C(=O)O; NMeV = CN[C@H](C(=O)O)C(C)C; NMeA = CN[C@@H](C)C(=O)O; βAla = NCCC(=O)O
Measure: TGI

Qu. Which TGI is reported for this compound? O=C1O/C(=C(\Br)c2ccc([N+](=O)[O-])cc2)c2ccccc21
Ans. > 100 µM

Qu. Which TGI is reported for this compound? Nc1nc(N)c2cc(-c3cc4ccccc4[nH]3)ccc2n1
Ans. > 100 µM

Qu. Which TGI is reported for this compound? CCCCOc1ccc(/C=C/C2=[N+](CCO)CCO2)cc1
Ans. > 100 µM

Qu. Which TGI is reported for this compound? O=c1[nH]c(=O)n(Cc2ccc(C34CC5CC(CC(C5)C3)C4)c(O)c2)cc1F
Ans. 28.5 µM

Qu. Which TGI is reported for this compound? O=S(=O)(O)c1cc(O)c(N=NC2S(=O)(=O)OCCOS2(=O)=O)c2ccccc12
Ans. > 100 µM

Qu. Which TGI is reported for this compound? Cc1cc2c3c(c1)S(=O)(=O)c1cc(Cl)ccc1N3CCC2
Ans. > 100 µM

Qu. Which TGI is reported for this compound? CCOc1cc(/C=C/C(=O)CC(=O)/C=C/c2ccc(OC(=O)CNc3nc4ccc(OC)cc4s3)c(OCC)c2)ccc1OC(=O)CNc1nc2ccc(OC)cc2s1
Ans. 15.1 µM

Qu. Which TGI is reported for this compound? O=C(CN1CCCCC1)c1ccc2[nH]c(=O)oc2c1
Ans. > 100 µM

Qu. Which TGI is reported for this compound? O=c1[nH]c2c(C(F)(F)F)c(Cl)c(-c3ccccc3)nc2o1
Ans. 38.4 µM

Qu. Which TGI is reported for this compound? CCCCCOC(=O)c1c(C)[nH]c(/C=C2\N=C(c3ccc[nH]3)C=C2OC)c1C
Ans. 0.349 µM

Qu. Which TGI is reported for this compound? CCC(C)[C@@H]1NC(=O)[C@@H]2CCCN2C(=O)C(CC(O)CCl)OC(=O)CCNC(=O)[C@H](C)N(C)C(=O)[C@H](C(C)C)N(C)C1=O (some centres undefined) (cyclo([Ile(3ξ)][NMeV][NMeA][βAla][Pentanoyl(2-O,4-OH,5-Cl)]P))
Ans. > 100 µM

Qu. Which TGI is reported for this compound? C[C@]12CC[C@H]3[C@@H](CC=C4C[C@@H](N5CCCC5)CC[C@@]43C)[C@@H]1C/C(=C\c1ccc([N+](=O)[O-])cc1)[C@@H]2O
Ans. 29.8 µM

Qu. Which TGI is reported for this compound? CCN(CC)CC(C(=O)Nc1c(C)cccc1C)/C(C)=N\NC(=S)NN (centres undefined)
Ans. > 100 µM

Qu. Which TGI is reported for this compound? Cc1cccc(C)c1NC(=S)N/C=C(\C#N)C(N)=O
Ans. > 100 µM

Qu. Which TGI is reported for this compound? CC(C)(Sc1cc(C(C)(C)C)c(O)c(C(C)(C)C)c1)Sc1cc(C(C)(C)C)c(O)c(C(C)(C)C)c1
Ans. > 100 µM

Qu. Which TGI is reported for this compound? CCCCOC(=O)Nc1ccc(S(=O)(=O)Nc2c(Cl)cccc2Cl)cc1
Ans. 57.5 µM

Qu. Which TGI is reported for this compound? OC1C2CN3CCN(C2)CC1(c1ccccc1)C3 (centres undefined)
Ans. > 100 µM

Qu. Which TGI is reported for this compound? CC1(N2CCOCC2)CC2C(=[N+]1[O-])CCC/C2=N/O (centres undefined)
Ans. > 100 µM

Qu. Which TGI is reported for this compound? O=C(c1ccccc1)c1nc2ccc(Cl)cc2cc1C(Br)Br
Ans. 0.34 µM
